- target-or-test-system: panel of 255 wild-type kinases (Homo sapiens, UniProt P08069)
- Sequence (P08069 31-1367): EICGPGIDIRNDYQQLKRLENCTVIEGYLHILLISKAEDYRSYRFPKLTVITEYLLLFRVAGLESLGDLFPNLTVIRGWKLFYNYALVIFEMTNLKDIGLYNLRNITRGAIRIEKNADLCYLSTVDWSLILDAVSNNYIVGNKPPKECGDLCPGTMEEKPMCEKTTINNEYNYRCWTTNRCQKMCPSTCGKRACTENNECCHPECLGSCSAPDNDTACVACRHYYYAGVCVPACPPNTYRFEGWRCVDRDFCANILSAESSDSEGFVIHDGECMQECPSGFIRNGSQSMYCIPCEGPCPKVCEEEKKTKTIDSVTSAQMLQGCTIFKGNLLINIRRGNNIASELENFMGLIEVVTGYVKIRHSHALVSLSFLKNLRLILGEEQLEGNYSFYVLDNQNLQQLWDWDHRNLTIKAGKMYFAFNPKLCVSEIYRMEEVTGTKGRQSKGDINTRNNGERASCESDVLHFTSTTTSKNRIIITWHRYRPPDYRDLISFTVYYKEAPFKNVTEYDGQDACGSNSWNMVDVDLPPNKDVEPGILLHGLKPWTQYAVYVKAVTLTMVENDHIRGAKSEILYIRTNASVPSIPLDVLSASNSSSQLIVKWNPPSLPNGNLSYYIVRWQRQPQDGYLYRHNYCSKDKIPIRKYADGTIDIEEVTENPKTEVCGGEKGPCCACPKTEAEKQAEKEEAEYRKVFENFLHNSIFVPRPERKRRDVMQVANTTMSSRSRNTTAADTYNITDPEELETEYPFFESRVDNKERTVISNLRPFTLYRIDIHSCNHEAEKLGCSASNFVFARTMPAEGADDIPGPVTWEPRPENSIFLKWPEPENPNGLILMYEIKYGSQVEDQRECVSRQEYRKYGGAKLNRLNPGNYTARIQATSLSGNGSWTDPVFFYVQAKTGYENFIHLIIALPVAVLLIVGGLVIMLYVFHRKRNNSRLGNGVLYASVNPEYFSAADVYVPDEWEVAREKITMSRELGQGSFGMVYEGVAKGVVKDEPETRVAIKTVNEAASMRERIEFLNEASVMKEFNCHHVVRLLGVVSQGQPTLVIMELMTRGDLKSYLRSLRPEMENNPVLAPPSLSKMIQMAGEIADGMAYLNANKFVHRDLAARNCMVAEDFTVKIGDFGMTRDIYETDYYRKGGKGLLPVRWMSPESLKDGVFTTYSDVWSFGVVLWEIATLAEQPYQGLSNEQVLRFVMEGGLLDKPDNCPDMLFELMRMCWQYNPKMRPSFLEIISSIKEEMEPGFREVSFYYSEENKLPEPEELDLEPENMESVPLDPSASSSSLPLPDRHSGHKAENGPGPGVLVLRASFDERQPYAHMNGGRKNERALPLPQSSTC
- method-notes: Kinase panel profiling at 1 µmol/L (MSA or IMAP), percentage inhibition
- Type: biochemical
- condition-info: kinase IGF1R; 1 µmol/L single concentration; read-out: %-inhibition at 1 µmol/L, IGF1R
attribute-measured: inhibition at 1 µM
Answer format: number, then unit.

O=C(Nc1cnn2ccc(N3CCC[C@@H]3c3cc(F)ccc3F)nc12)N1CC[C@H](O)C1 ... 3.6%
CCN1CCN(c2ccc(Nc3cc(N(C)C(=O)Nc4c(Cl)c(OC)cc(OC)c4Cl)ncn3)cc2)CC1 ... 18%

Field: next molecule
Give inhibition at 1 µM (panel of 255 wild-type kinases (Homo sapiens, UniProt P08069)) of the following molecule: C=CC(=O)N1CCC([C@@H]2CCNc3c(C(N)=O)c(-c4ccc(Oc5ccccc5)cc4)nn32)CC1
3%

----------
- target-or-test-system: panel of 255 wild-type kinases (Homo sapiens)
- method-notes: Kinase panel profiling at 1 µmol/L (MSA or IMAP), percentage inhibition
- Assay type: biochemical
- condition-info: AKT1 kinase assay; 1 µmol/L single concentration; read-out: %-inhibition AKT1
Would you kindly list inhibition at 1 µM for each of these compounds?
Answer format: number, then unit.

Illustrative cases are given below, each with its answer.
Cc1nc(NC(=O)N2CCC[C@H]2C(N)=O)sc1-c1ccnc(C(C)(C)C(F)(F)F)c1 ... -6.35%
Cn1cnc2c(F)c(Nc3ccc(Br)cc3Cl)c(C(=O)NOCCO)cc21 ... -11%
CCn1c(=O)c(-c2cc(NC(=O)Nc3ccccc3)c(F)cc2Br)cc2cnc(NC)cc21 ... -6%
COc1ccc(CN2C3CC2CN(c2ccc(-c4cc(OCC(C)(C)O)cn5ncc(C#N)c45)cn2)C3)cn1 ... -10%
CCc1nc(C(N)=O)c(Nc2ccc(N3CCC(N4CCN(C)CC4)CC3)c(OC)c2)nc1NC1CCOCC1 ... -22%
COc1cc2ncnc(Nc3ccc(F)c(Cl)c3)c2cc1NC(=O)/C=C/CN1CCCCC1 ... -22%

Please go through the list and note inhibition at 1 µM for each compound.
1. Cc1cc(Nc2ncnc3ccc(NC4=NC(C)(C)CO4)cc23)ccc1Oc1ccn2ncnc2c1
2. C[C@H]1Oc2cc(cnc2N)-c2c(nn(C)c2C#N)CN(C)C(=O)c2ccc(F)cc21
3. CCN1C(=O)N(c2c(F)c(OC)cc(OC)c2F)Cc2cnc3[nH]c(CN4CCOCC4)cc3c21
4. C=CC(=O)N1CCC([C@@H]2CCNc3c(C(N)=O)c(-c4ccc(Oc5ccccc5)cc4)nn32)CC1
5. FC(F)(F)c1ccc(CNc2ccc(Cc3c[nH]c4ncc(Cl)cc34)cn2)cn1
6. CO[C@]1(C(=O)N[C@@H](C)c2ccc(-n3cc(F)cn3)nc2)CC[C@H](c2nc(C)cc(Nc3cc(C)[nH]n3)n2)CC1

["-9%", "-4%", "-12%", "-13%", "-20%", "-12%"]

----------
- target-or-test-system: UniProt Q9H093
- Sequence (Q9H093 whole entry): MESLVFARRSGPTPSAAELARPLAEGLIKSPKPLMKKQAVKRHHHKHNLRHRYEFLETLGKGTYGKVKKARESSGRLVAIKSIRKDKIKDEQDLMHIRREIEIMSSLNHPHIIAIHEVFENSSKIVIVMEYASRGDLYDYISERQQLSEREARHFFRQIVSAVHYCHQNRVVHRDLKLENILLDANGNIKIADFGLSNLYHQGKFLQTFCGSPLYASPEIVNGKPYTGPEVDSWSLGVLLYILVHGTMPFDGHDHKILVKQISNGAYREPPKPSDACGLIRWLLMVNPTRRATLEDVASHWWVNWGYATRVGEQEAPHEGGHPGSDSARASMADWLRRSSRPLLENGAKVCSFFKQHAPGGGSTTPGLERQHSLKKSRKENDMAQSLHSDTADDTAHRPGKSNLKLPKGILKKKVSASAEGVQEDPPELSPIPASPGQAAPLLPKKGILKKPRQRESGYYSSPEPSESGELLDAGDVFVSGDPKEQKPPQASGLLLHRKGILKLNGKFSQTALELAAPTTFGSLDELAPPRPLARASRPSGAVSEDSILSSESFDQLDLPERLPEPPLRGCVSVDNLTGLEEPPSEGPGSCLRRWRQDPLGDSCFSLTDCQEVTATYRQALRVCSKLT
- method-notes: Kinase panel profiling at 1 µmol/L (MSA or IMAP), percentage inhibition
- Format: biochemical
- condition-info: NuaK2; 1 µmol/L single concentration; read-out: %-inhibition, NuaK2
Criterion: inhibition at 1 µM meeting or surpassing 7%. Met: MET. Not met: NOT MET.

Example entries and their recorded answers appear below.
CCn1c(=O)c(-c2cc(NC(=O)Nc3ccccc3)c(F)cc2Br)cc2cnc(NC)cc21 ... NOT MET
Cn1cc(-c2cc3c(N4CCN(c5ncc([C@@](C)(N)c6ccc(F)cc6)cn5)CC4)ncnn3c2)cn1 ... MET
COc1ccc(CN2C3CC2CN(c2ccc(-c4cc(OCC(C)(C)O)cn5ncc(C#N)c45)cn2)C3)cn1 ... NOT MET
CO[C@]1(C(=O)N[C@@H](C)c2ccc(-n3cc(F)cn3)nc2)CC[C@H](c2nc(C)cc(Nc3cc(C)[nH]n3)n2)CC1 ... MET
CCN1CCN(c2ccc(Nc3cc(N(C)C(=O)Nc4c(Cl)c(OC)cc(OC)c4Cl)ncn3)cc2)CC1 ... MET

Reported inhibition at 1 µM reaches at least 7% for COc1cc2ncnc(Nc3ccc(F)c(Cl)c3)c2cc1NC(=O)/C=C/CN1CCCCC1 ?
NOT MET

Reported inhibition at 1 µM reaches at least 7% for C[C@H](Nc1ncnc2nc[nH]c12)c1cc2cccc(Cl)c2c(=O)n1-c1ccccc1 ?
NOT MET

Reported inhibition at 1 µM reaches at least 7% for C[C@H]1Oc2cc(cnc2N)-c2c(nn(C)c2C#N)CN(C)C(=O)c2ccc(F)cc21 ?
MET

Reported inhibition at 1 µM reaches at least 7% for O=C(Nc1cnn2ccc(N3CCC[C@@H]3c3cc(F)ccc3F)nc12)N1CC[C@H](O)C1 ?
NOT MET

Reported inhibition at 1 µM reaches at least 7% for Cn1cnc2c(F)c(Nc3ccc(Br)cc3Cl)c(C(=O)NOCCO)cc21 ?
NOT MET

Reported inhibition at 1 µM reaches at least 7% for FC(F)(F)c1ccc(CNc2ccc(Cc3c[nH]c4ncc(Cl)cc34)cn2)cn1 ?
NOT MET

Reported inhibition at 1 µM reaches at least 7% for COC(=O)N[C@@H](C)CNc1nccc(-c2cn(C(C)C)nc2-c2cc(Cl)cc(NS(C)(=O)=O)c2F)n1 ?
NOT MET

Reported inhibition at 1 µM reaches at least 7% for CCc1nc(C(N)=O)c(Nc2ccc(N3CCC(N4CCN(C)CC4)CC3)c(OC)c2)nc1NC1CCOCC1 ?
MET

Reported inhibition at 1 µM reaches at least 7% for C=CC(=O)N1CCC([C@@H]2CCNc3c(C(N)=O)c(-c4ccc(Oc5ccccc5)cc4)nn32)CC1 ?
NOT MET

Reported inhibition at 1 µM reaches at least 7% for Cn1cnc2c(F)c(Nc3ccc(Br)cc3F)c(C(=O)NOCCO)cc21 ?
NOT MET

----------
- target-or-test-system: UniProt:O15530
- Sequence (O15530 whole entry): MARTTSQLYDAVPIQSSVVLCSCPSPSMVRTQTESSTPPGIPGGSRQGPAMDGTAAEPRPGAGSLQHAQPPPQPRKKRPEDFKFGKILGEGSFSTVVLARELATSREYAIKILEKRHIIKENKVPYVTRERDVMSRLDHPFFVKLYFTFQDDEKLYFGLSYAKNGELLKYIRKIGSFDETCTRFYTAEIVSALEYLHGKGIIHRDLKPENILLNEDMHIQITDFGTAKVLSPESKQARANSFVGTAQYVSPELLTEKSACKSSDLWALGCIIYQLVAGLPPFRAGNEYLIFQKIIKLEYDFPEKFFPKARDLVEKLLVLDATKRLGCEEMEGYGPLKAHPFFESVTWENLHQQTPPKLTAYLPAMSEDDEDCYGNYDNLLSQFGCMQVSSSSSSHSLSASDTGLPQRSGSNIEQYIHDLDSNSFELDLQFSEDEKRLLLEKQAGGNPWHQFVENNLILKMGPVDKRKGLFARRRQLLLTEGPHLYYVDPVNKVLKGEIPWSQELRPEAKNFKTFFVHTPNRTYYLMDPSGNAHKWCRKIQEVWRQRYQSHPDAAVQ
- method-notes: Kinase panel profiling at 1 µmol/L (MSA or IMAP), percentage inhibition
- Format: biochemical
- condition-info: kinase PDK1; 1 µmol/L single concentration; read-out: %-inhibition at 1 µmol/L, PDK1
attribute-measured: inhibition at 1 µM (%)
Give bare numbers, in %.

CO[C@]1(C(=O)N[C@@H](C)c2ccc(-n3cc(F)cn3)nc2)CC[C@H](c2nc(C)cc(Nc3cc(C)[nH]n3)n2)CC1 ... 9
COc1cc2ncnc(Nc3ccc(F)c(Cl)c3)c2cc1NC(=O)/C=C/CN1CCCCC1 ... -7
O=C(Nc1cnn2ccc(N3CCC[C@@H]3c3cc(F)ccc3F)nc12)N1CC[C@H](O)C1 ... 2.15
Cc1nc(NC(=O)N2CCC[C@H]2C(N)=O)sc1-c1ccnc(C(C)(C)C(F)(F)F)c1 ... -0.422
FC(F)(F)c1ccc(CNc2ccc(Cc3c[nH]c4ncc(Cl)cc34)cn2)cn1 ... -4.67

Please go through the list and note inhibition at 1 µM for each compound.
1. Cc1cc(Nc2ncnc3ccc(NC4=NC(C)(C)CO4)cc23)ccc1Oc1ccn2ncnc2c1
2. CCN1CCN(c2ccc(Nc3cc(N(C)C(=O)Nc4c(Cl)c(OC)cc(OC)c4Cl)ncn3)cc2)CC1
3. Cn1cc(-c2cc3c(N4CCN(c5ncc([C@@](C)(N)c6ccc(F)cc6)cn5)CC4)ncnn3c2)cn1
4. CN1CCN(c2ccc(C(=O)Nc3n[nH]c4ccc(Cc5cc(F)cc(F)c5)cc34)c(NC3CCOCC3)c2)CC1
5. C[C@H](Nc1ncnc2nc[nH]c12)c1cc2cccc(Cl)c2c(=O)n1-c1ccccc1
6. C=CC(=O)N1CCC([C@@H]2CCNc3c(C(N)=O)c(-c4ccc(Oc5ccccc5)cc4)nn32)CC1

1: 3; 2: 1.36; 3: 6.57; 4: 0.207; 5: 2.42; 6: 0.547

----------
- target-or-test-system: panel of 255 wild-type kinases (Homo sapiens, UniProt P27361)
- Sequence (P27361 whole entry): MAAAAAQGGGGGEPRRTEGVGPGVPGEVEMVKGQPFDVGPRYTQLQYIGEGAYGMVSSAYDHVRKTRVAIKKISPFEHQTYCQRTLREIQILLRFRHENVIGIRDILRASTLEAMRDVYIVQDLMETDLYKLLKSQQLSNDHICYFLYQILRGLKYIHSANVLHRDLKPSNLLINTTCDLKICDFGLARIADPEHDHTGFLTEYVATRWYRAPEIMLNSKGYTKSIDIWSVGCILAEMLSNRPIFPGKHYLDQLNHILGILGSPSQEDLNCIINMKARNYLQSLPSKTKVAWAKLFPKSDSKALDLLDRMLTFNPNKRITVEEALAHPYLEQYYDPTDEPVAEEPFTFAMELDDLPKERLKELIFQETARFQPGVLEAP
- method-notes: Kinase panel profiling at 1 µmol/L (MSA or IMAP), percentage inhibition
- Format: biochemical
- condition-info: kinase Erk1; 1 µmol/L single concentration; read-out: %-inhibition at 1 µmol/L, Erk1
attribute-measured: inhibition at 1 µM (%)
One number for each entry, in %.

COc1ccc(CN2C3CC2CN(c2ccc(-c4cc(OCC(C)(C)O)cn5ncc(C#N)c45)cn2)C3)cn1 ... -7.44

Please go through the list and note inhibition at 1 µM for each compound.
1. C[C@H](Nc1ncnc2nc[nH]c12)c1cc2cccc(Cl)c2c(=O)n1-c1ccccc1
2. CN1CCN(c2ccc(C(=O)Nc3n[nH]c4ccc(Cc5cc(F)cc(F)c5)cc34)c(NC3CCOCC3)c2)CC1
3. CCc1nc(C(N)=O)c(Nc2ccc(N3CCC(N4CCN(C)CC4)CC3)c(OC)c2)nc1NC1CCOCC1
4. CCN1C(=O)N(c2c(F)c(OC)cc(OC)c2F)Cc2cnc3[nH]c(CN4CCOCC4)cc3c21

2.77
-0.529
1.85
-8.52

Please go through the list and note inhibition at 1 µM for each compound.
1. CCn1c(=O)c(-c2cc(NC(=O)Nc3ccccc3)c(F)cc2Br)cc2cnc(NC)cc21
2. Cc1cc(Nc2ncnc3ccc(NC4=NC(C)(C)CO4)cc23)ccc1Oc1ccn2ncnc2c1

1. 2.79
2. -2.6

// provenance: paper PMC9516332
